- experimentalSystem: T1, cynomolgus monkey IL-6 (cynomolgus monkey, UniProt P79341 28-212, limits assumed)
- T1 construct: also called HIS-cyIL-6
- test: SPR; periplasmic fraction; against parental 29B11
attributeMeasured: fold improvement ka (fold)
One number for each entry, in fold.

Request: Tell me the measured fold improvement ka of Fab 55C1 (Fab, V domains shown, VL-shuffled Fab of 29B11, periplasmic fraction; also called 55C1a) VH: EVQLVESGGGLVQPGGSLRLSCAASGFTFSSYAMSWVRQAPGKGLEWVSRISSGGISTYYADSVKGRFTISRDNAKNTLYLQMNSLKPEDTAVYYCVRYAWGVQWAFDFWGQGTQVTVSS VL: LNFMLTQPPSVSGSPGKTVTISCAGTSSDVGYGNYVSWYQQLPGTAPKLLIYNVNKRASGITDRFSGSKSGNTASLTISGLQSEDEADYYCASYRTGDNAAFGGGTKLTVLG , please.
Result: 4.2

Origin of the recorded values: patent US20220073604A1
